In this section, each of the molecules is paired with its reported viability.
Experiment: reversal of MRP1-mediated doxorubicin resistance, pilot screen, H69AR cells, doxorubicin co-treatment (AID 601)
Conditions: H69AR cells, CellTiter-Glo, 72 h; compound alone cytotoxicity; at 10 µM
Please state the figure in %; there is no need to write the unit.

Below: 4 molecules and their reported viability.
CCOc1ccc(C(c2nnnn2Cc2ccccc2)N2CCN(C(=O)c3ccco3)CC2)cc1 (stereo not drawn)
98.3
Cc1cc2oc(=O)cc(C)c2c(=O)o1
108
CCOC(=O)N1CCN(C(=O)c2csc3c2CCCCC3)CC1
90.8
CCOc1cc(-c2nc(-c3ccccc3OC)no2)cc(OCC)c1OCC
92.5

Give recorded viability. [O-][n+]1c2ccc3nonc3c2nn1-c1ccccc1Cl 95.1

###

Assay: reducers of endogenous Her2 protein level, primary screen, SKBR3 breast tumor cells, AlphaScreen, ATP viability (AID 461);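 further: percent of carrier control wells set as 100% viability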
Details: 18-24 h, measured here: SKBR3 viability, ATP luminescence, at 10 µM
readout: viability
Reply with the number and its unit after it.

Below: 6 molecules and their reported viability.
CC(C)Cn1c(CN2CCCCC2C)nc2c1c(=O)n(C)c(=O)n2C (stereo unspecified)
88.5%
CCc1cccc(NC(=O)C2CCCN(S(=O)(=O)c3c(C)[nH]c(=O)[nH]c3=O)C2)c1 (stereo unspecified)
89.5%
C=CCn1c(-c2cccs2)nc2nc3ccccc3nc21
87%
CCCCNS(=O)(=O)c1ccc(OC)c2ncccc12
102%
CCOC(=O)c1cccc(NC(=O)CS(=O)(=O)Cc2nc(-c3cccc(OC)c3)oc2C)c1
99.5%
CC(C)C1N=C2c3ccccc3N=C(SCc3cc(=O)n4ccccc4n3)N2C1=O (stereo unspecified)
89%

Give recorded viability. COc1nc(OC)nc(N2CCC(C(=O)NC3CCCCCC3)CC2)n1 95.5%

Give recorded viability. CC(C)(C)n1cnc2cc(NS(=O)(=O)c3ccc(Br)cc3)ccc21 104%

Give recorded viability. Cc1cc(C)nc(SCc2nnc(SCc3ccccc3Cl)o2)n1 80%

Give recorded viability. Cc1oc(-c2ccc(Cl)cc2)nc1CS(=O)CC(=O)NCCCN(C)C1CCCCC1 (stereo unspecified) 91.5%

Give recorded viability. NC(=O)CSc1nnc(-c2cnccn2)n1-c1ccccc1 114%

###

In this section, each of the compounds is paired with its reported viability.
Assay: reducers of endogenous Her2 protein level, primary screen, SKBR3 breast tumor cells, AlphaScreen, ATP viability (AID 461);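 further: percent of carrier control wells set as 100% viability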
Conditions: 18-24 h, measured here: SKBR3 viability, ATP luminescence, at 10 µM
Please state the figure in %; there is no need to write the unit.

Below: 5 compounds and their reported viability.
O=C(C1CCN(S(=O)(=O)Cc2ccccc2)CC1)N1CCN(c2ncccn2)CC1
83
CCCc1nnc2n1N=C(c1ccc(OC)c(OC)c1)CS2
85
Brc1ccc(-c2csc(/N=C/N3CCOCC3)n2)cc1
113
CCN(c1cccc(C)c1)S(=O)(=O)c1ccc2[nH]c(=O)c(=O)[nH]c2c1
108
COc1ccccc1N1CCN(Cc2nnnn2CCc2ccccc2)CC1
88

Give recorded viability. Brc1cccc(-c2cnc3n2CCCCC3)c1 95.5

Give recorded viability. O=C1NC(Nc2ccccn2)(C(F)(F)F)C(=O)N1c1ccc(F)cc1 (stereo not drawn) 102

Give recorded viability. COCCn1c(SCC(=O)Nc2cccc(OC)c2)nnc1-c1ccc(Cl)cc1 98.5

Give recorded viability. Cc1cc(OCC(=O)Nc2ccc3oc(-c4ccncc4)nc3c2)ccc1Cl 92.5

Give recorded viability. COc1ccccc1OCC(=O)N1CCNC1=O 90

Give recorded viability. O=C(C1CCC1)N1CCc2cc(S(=O)(=O)Nc3ccc4c(c3)OCO4)ccc21 85.5

Give recorded viability. CC(C)C(OC(=O)c1ccco1)C(=O)NCc1ccccc1 (stereo not drawn) 91.5

Give recorded viability. O=C(COc1ncnc2ccccc12)NCc1ccc2c(c1)OCO2 100

Give recorded viability. O=C(O)CCNc1nc(-c2ccccc2)nc2ccccc12 87

Give recorded viability. Cc1noc(C)c1C(=O)OCC(=O)Nc1ccccc1C(=O)NC(C)c1ccccc1 (stereo not drawn) 90.5

Give recorded viability. O=C(COc1ccccc1)NCCSCc1ccco1 109

Give recorded viability. COCCOC(=O)c1c(C)nc(SCC(=O)Nc2ccc(OC)cc2)c(C#N)c1-c1ccco1 108

###

Assay: growth suppression of yeast trafficking mutant, preliminary HTS, modulators of trafficking downstream of Golgi apparatus project, 1536-format plate, OD 615 nm (AID 637)
Details: yeast transport mutant growth, absorbance 615 nm, 18 h; stronger effect = higher value
In this section, each of the molecules is paired with its reported inhibition.
Please state the figure in %; there is no need to write the unit.

Below: 2 molecules and their reported inhibition.
[O-][n+]1c2c(nn1-c1ccccc1Cl)-c1nonc1CC2
-0.67
CCSc1nc2ccccc2n1CC(N)=O
1.9

Give recorded inhibition. COc1ccccc1N1CCN(C(=O)CSc2nc(-c3ccccc3)cc(=O)[nH]2)CC1 -6.83

Give recorded inhibition. CC1CCN(S(=O)(=O)c2ccc3[nH]cc(C(=O)NCCN4CCOCC4)c(=O)c3c2)CC1 -3.06

Give recorded inhibition. O=C(CN1C(=O)CCSc2ccccc21)Nc1ccc(F)cc1 0.16

Give recorded inhibition. COc1ccc2c(c1)CCc1c(C(=O)NCc3cccnc3)noc1-2 0.55

###

Assay: reversal of MRP1-mediated doxorubicin resistance, pilot screen, H69AR cells, doxorubicin co-treatment (AID 601)
Details: H69AR cells, CellTiter-Glo, 72 h; compound alone cytotoxicity; at 10 µM
In this section, each of the compounds is paired with its reported viability.
Please state the figure in %; there is no need to write the unit.

Below: 8 compounds and their reported viability.
CC1CCN(C(=O)CSc2nc3ccccc3[nH]2)CC1
109
CC(=O)c1cccc(N(CC(=O)N2CCCC2)S(C)(=O)=O)c1
99.7
COC(=O)c1ccccc1NC(=O)CSc1nc2c(c(=O)n(C)c(=O)n2C)n1C
97
O=c1c2c3c(sc2nc2sc(C4CC4)nn12)CCCC3
79.7
c1ccc(CCNc2ccc3nncn3n2)cc1
86.5
O=C(Cn1cnc2c(nnn2Cc2ccc(Cl)cc2)c1=O)NCC1CCCO1 (stereo unspecified)
106
O=C1c2oc3ccccc3c(=O)c2C(c2ccccn2)N1Cc1ccccc1 (stereo unspecified)
104
CCSc1nc2c(c(=O)n1CC)SC(C)C2 (stereo unspecified)
94.1

Give recorded viability. Cc1nn(-c2ccc(Cl)cc2)c2sc(C(=O)N3CCN(c4ccccn4)CC3)cc12 67.2

Give recorded viability. CCOC(=O)C1=C(C)NC2=C(C(=O)CC(C)(C)C2)C1c1ccc(N(C)C)cc1 (stereo unspecified) 94.3

Give recorded viability. C=CCc1cc(C(=O)N2CCCCC2)ccc1O 92.3

###

Test: 384-well plate pilot, post-Golgi transport modulator project, inhibition of yeast transport mutant growth (AID 636)
Settings: absorbance 615 nm, about 18 h, stronger effect = higher value
readout: inhibition (%)
Please state the figure in %; there is no need to write the unit.

Cc1cccc(-c2noc(CCC(=O)Nc3ccccc3)n2)c1
-7.3
C=CCn1c(-c2ccccc2)c[nH]c1=S
-5.84
Cc1ccc(CCNC(=O)C2CCCN(S(=O)(=O)c3cnc[nH]3)C2)cc1 (centres undefined)
-0.8
CCOc1ccc(NC(=O)CSc2nnnn2CC(=O)O)cc1
-3.16
O=C1NC(Nc2ccccn2)(C(F)(F)F)C(=O)N1c1ccc(F)cc1 (centres undefined)
-5.47

Give recorded inhibition. CCSCCC(NC1=CC(=O)CC(C)(C)C1)C(=O)O (centres undefined) 1.58

Give recorded inhibition. CCOC(=O)c1cccc(NC(=O)c2ccco2)c1 -0.77

Give recorded inhibition. Cc1ccc(C2N(c3ccc(Cl)c(Cl)c3)C(=O)C3CCCN32)o1 (centres undefined) -1.45

###

Experiment: reducers of endogenous Her2 protein level, primary screen, SKBR3 breast tumor cells, AlphaScreen, ATP viability (AID 461);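 further: percent of carrier control wells set as 100% viability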
Conditions: 18-24 h, measured here: SKBR3 viability, ATP luminescence, at 10 µM
In this section, each of the compounds is paired with its reported viability.
Please state the figure in %; there is no need to write the unit.

Below: 4 compounds and their reported viability.
COc1cc(C(=O)Nc2cc(Cl)ccc2C)c(-n2cnnn2)cc1OC
102
CCn1c(C)nc2cc(C(=O)OCCC(F)(F)F)ccc21
100
CC(=O)N1CCN(c2ccc(S(=O)(=O)N3CCCCC3)cn2)CC1
97
CC1(C)CC(=O)C(C=NCCc2ccc(S(N)(=O)=O)cc2)=C(O)C1
116

Give recorded viability. COc1ccc(-c2nnc(SCC(=O)c3cc(C)n(Cc4cccs4)c3C)o2)cc1 99.5

Give recorded viability. COc1ccc(OC)c(C2C(C#N)=C(N)Oc3cc(C)[nH]c(=O)c32)c1 (stereo unspecified) 92

Give recorded viability. O=C(Nc1cccnc1)c1noc2c1CCCCC2 110

Give recorded viability. CSC1=C(C#N)C(c2ccc(Cl)cc2)C2=C(CC(C)(C)CC2=O)N1 (stereo unspecified) 102

Give recorded viability. CCOC(=O)c1ccc(NC(=O)CCc2c(C)nc3ncnn3c2C)cc1 88

Give recorded viability. Cc1ccnc(NC(=O)CCC(=O)N(CC(=O)NC2CCCCC2)c2cccc(C)c2C)c1 92.5

Give recorded viability. O=S(=O)(NCC(c1cccnc1)N1CCN(c2ccccc2)CC1)c1cc(F)ccc1F (stereo unspecified) 98.5

Values from PubChem BioAssay
